- Target Or Test System: aggregated (oligomeric) P301S 2N4R tau, pHrodo-labelled (human, UniProt P10636 1-758, pHrodo Red maleimide label)
- Sequence (P10636 other isoform, or with tags, fused parts or gaps P301S P301S): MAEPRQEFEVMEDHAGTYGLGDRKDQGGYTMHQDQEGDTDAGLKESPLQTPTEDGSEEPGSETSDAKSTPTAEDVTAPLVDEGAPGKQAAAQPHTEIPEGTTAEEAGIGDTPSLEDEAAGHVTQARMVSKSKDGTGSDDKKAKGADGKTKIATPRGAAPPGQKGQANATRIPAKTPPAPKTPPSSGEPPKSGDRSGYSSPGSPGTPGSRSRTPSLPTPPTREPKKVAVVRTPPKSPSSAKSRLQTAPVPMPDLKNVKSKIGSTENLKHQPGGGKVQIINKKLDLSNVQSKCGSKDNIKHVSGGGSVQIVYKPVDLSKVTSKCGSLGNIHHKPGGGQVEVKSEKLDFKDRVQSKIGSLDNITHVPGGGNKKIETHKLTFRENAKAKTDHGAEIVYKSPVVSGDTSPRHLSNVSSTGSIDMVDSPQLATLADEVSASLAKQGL
- Run Description: cell-based or functional assay
inhibition of aggregated tau uptake into human astrocytes values for the binders below.
Measurement Type: inhibition of aggregated tau uptake into human astrocytes (%)

Binder	Observed Value
#44_VH4VK4_H02/pVL (antibody, V domains shown, also called Clone VH4_H02; #44_VH4_H02) VH: QVQLQESGPGLVKPSETLSLTCTVSGIDLSSYAMAWVRQAPGKGLEWIGCIDRRGGTFYASWVKGRFTISKDTSKTTVDLQMTSLTAEDTATYFCARDRGDFDVWGQGTLVTVSS VL: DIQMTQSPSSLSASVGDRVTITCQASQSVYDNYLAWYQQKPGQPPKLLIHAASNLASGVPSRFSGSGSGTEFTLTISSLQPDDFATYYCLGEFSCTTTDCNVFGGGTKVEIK	43.3
#44_VH4VK4_H04/pVL (antibody, V domains shown, also called VH04/pVL; Clone VH4_H04) VH: QVQLQESGPGLVKPSETLSLTCTVSGIDLSSYAMAWVRQAPGKGLEWIGCIDRRGGTFYASWVKGRFTISKDTSKTTVDLQMTSLTAEDTATYFCARDAGSFHPWGQGTLVTVSS VL: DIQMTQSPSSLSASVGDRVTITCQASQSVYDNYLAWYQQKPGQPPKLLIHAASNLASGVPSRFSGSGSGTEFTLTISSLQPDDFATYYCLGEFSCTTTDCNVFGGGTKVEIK	32.6
#44_VH4VK4 humanised hIgG1 (antibody, V domains shown, also called VH4Vκ4; pVH/pVL) VH: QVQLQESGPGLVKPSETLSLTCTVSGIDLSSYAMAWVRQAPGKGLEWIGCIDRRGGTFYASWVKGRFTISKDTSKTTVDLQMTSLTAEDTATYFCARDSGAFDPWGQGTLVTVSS VL: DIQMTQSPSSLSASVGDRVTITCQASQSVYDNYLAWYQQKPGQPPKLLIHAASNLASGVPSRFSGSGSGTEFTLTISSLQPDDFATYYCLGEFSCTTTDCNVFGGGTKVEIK	41.3
#44_VH4VK4_H01/pVL (antibody, V domains shown, also called Clone VH4_H01; #44_VH4_H01) VH: QVQLQESGPGLVKPSETLSLTCTVSGIDLSSYAMAWVRQAPGKGLEWIGCIDRRGGTFYASWVKGRFTISKDTSKTTVDLQMTSLTAEDTATYFCARDVGSFDVWGQGTLVTVSS VL: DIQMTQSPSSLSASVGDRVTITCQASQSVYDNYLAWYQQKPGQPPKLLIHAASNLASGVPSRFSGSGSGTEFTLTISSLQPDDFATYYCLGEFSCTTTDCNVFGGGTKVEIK	38.6
#44_VH4VK4_H06/pVL (antibody, V domains shown, also called Clone VH4_H06; #44_VH4_H06) VH: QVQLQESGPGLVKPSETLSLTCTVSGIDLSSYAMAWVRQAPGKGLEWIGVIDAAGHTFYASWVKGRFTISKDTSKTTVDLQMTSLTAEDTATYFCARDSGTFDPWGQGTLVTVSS VL: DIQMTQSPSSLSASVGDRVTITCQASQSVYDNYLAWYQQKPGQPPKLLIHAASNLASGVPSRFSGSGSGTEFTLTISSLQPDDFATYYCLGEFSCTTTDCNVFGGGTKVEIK	39.1
